Tested on: CCRF-CEM leukemia
Test: NCI tumour cell line growth inhibition, 48 h; in the data active = GI50 below about 0.43 µM; inactive = the rest
Outcome (select one): T for active, F for inactive

Observe how each entry below is paired with its result.
[Cl][Hg][Cl]	F
S=C(Nc1ccc(Br)cc1)Nc1ccc(Br)cc1	F
Nc1ccc(C2=NN(c3ccccc3)C(c3ccc(Cl)cc3)C2)cc1 (configuration not stated)	F
O=S(=O)(Nc1ccccc1Cl)c1ccc(-c2cnc(C3CC3)o2)cc1	T
COC(=O)CCc1c[nH]c2ccc(N(CCCl)CCCl)cc12	F
Fc1ccc2[nH]cc(-c3nonc3-c3c[nH]c4ccc(Br)cc34)c2c1	F

query: Write down the call the test reported for this compound. Item: COC(=O)c1c2c(c[n+]([O-])c1C)C(=O)C=CC2=O
result: F

query: Do the same for CCN(Cc1cccc(F)c1)c1ccc(CO)c(Cl)c1 please
result: F

###

Tested on: DU-145 prostate
Assay: NCI tumour cell line growth inhibition, 48 h; in the data active means GI50 below about 0.43 µM; inactive means the rest
Outcome (select one): active, inactive

Observe how each entry below is paired with its result.
COC(=O)[C@@H](C)C[C@H](Cc1ccccc1)NC(=O)c1csc(CC[C@H](C(C)C)N(C)C(=O)[C@@H](NC(=O)[C@H]2CCCCN2C)C(C)C)n1	active
O=c1c(Oc2ccc(F)cc2F)cc2cnc(NC3CCOCC3)nc2n1CCCO	inactive
CCN(Cc1cccc(F)c1)c1ccc(CO)c(Cl)c1	inactive

Next item in the queue.
query: Write down the call the test reported for this molecule. Item: COc1cc(-c2cc3ncccc3c3nc(N)c4cccnc4c23)cc(OC)c1OC
result: inactive

###

Test system: TK-10 renal
Experiment: NCI tumour cell line growth inhibition, 48 h
endpoint: TGI (µM)
Numbers only, in µM.

C=C1C(=O)O[C@H]2[C@H]1CC/C(COC(=O)CSCCSCC(=O)OC/C1=C/CC[C@@]3(C)O[C@H]3[C@H]3OC(=O)C(=C)[C@@H]3CC1)=C\CC[C@@]1(C)O[C@@H]21	3.29

query: // lookup TGI | system=TK-10 renal | key= C#Cc1cccc(N2C(=O)CCC2=O)c1
result: 29.9

###

Tested on: UO-31 renal
Experiment: NCI tumour cell line growth inhibition, 48 h
I'd appreciate it if you could supply TGI values for the items below.

COCCCNC(=O)C1C(=O)N(CCCOC)C(=O)/C1=N\N (stereo unspecified)	> 100 µM
COC(=O)/C=C1/CCC(C(=O)OC)N1 (stereo unspecified)	> 100 µM
CN(C)CCCNC(=O)c1cc(NC(=O)c2cc(NC(=O)CCc3c[nH]c4ccccc34)cn2C)cn1C	> 100 µM

State recorded TGI for all listed molecules.
1. CCCCC(C#N)(OP1(=O)OC(c2ccccc2)C(C)N1C)c1ccccc1 (stereo unspecified)
2. CCCCC(=O)NS(=NC(=O)c1ccccc1)C(Cl)(Cl)Cl (stereo unspecified)
3. CCOC(=O)C1=CNC(C(=O)OCC)C1c1cccn1-c1ccc(Cl)cc1[N+](=O)[O-] (stereo unspecified)

result:
["31.4 µM", "> 100 µM", "> 100 µM"]

###

I'd appreciate it if you could supply GI50 values for the items below.
Tested on: NCI-H23 lung
Assay: NCI tumour cell line growth inhibition, 48 h

Recorded results for 5 molecules are shown here.
C=C1C(=O)O[C@H]2C[C@@H]1CC/C(C)=C/CC/C(C)=C/CC[C@H]2C	20.6 µM
[Cl][Hg][Cl]	17.2 µM
C[N-]c1nnnn1C.[Au+].c1ccc([PH+](c2ccccc2)c2ccccc2)cc1	1.97 µM
COC(=O)c1c2c(c[n+]([O-])c1C)C(=O)C=CC2=O	1.88 µM
CC(=O)[O][Ga]([Cl])[O]C(C)=O	> 100 µM

State recorded GI50 for all listed molecules.
1. N[C@H](C(=O)O)[C@H]1ON=C(Cl)[C@@H]1O
2. COc1ccc(-c2cn[nH]c2-c2cc(OC)c3c(c2)OCO3)cc1
3. [Cl-].[O-]/N=C(\c1ccccc1)c1ccccn1.[O-]/N=C(\c1ccccc1)c1ccccn1.[O-]/N=C(\c1ccccc1)c1ccccn1.[Sm+3]
4. Cc1cc(S(=O)(=O)Nc2nc3cscc3c(=O)n2Cc2ccccc2)c(S)cc1Cl
5. Cc1ccc(C)c2c1C(O)(C#Cc1ccccc1)c1ccccc1C2(O)C#Cc1ccccc1 (stereo not given)

result:
1. 5.09 µM
2. 0.43 µM
3. 32.8 µM
4. 51.5 µM
5. 3.23 µM
